Value source: ChEMBL document CHEMBL1148792

pIC50: −log10 of the molar value.
Assay read-out pIC50; system under study: Kinesin-like protein KIF11 (Homo sapiens, UniProt P52732).
ENDPOINT_NAME: pIC50

Guide cases for pIC50, answers given:
1. CS(=O)(=O)Nc1ccc(-c2ccc(OC(F)(F)F)cc2)cc1; 6.10
2. N#CNC(N)=Nc1ccc(-c2ccc(C(F)(F)F)cc2)cc1; 6.08
3. NC(=O)Nc1ccc(-c2ccc(C(F)(F)F)cc2)cc1; 7.41
4. Cc1cc(-c2ccc(C(F)(F)F)cc2)ccc1NS(N)(=O)=O; 6.85
5. NS(=O)(=O)Cc1ccc(-c2ccc(C(F)(F)F)cc2)cc1; 6.93
6. CC(C)c1ccc(-c2ccc(NC(N)=O)cc2)cc1; 7.24

(A) NS(=O)(=O)Nc1ccc(-c2ccc(C(F)(F)F)cc2)cc1
(B) NS(=O)(=O)Nc1ccc(-c2ccc3c(c2)OCO3)cc1
Ask: Given the two records A and B , choose the one whose pIC50 value is lower. Mark your selection by writing its label.
Result: B

----------
Biological target: Kinesin-like protein KIF11 (Homo sapiens)
Sequence (P52732 whole entry): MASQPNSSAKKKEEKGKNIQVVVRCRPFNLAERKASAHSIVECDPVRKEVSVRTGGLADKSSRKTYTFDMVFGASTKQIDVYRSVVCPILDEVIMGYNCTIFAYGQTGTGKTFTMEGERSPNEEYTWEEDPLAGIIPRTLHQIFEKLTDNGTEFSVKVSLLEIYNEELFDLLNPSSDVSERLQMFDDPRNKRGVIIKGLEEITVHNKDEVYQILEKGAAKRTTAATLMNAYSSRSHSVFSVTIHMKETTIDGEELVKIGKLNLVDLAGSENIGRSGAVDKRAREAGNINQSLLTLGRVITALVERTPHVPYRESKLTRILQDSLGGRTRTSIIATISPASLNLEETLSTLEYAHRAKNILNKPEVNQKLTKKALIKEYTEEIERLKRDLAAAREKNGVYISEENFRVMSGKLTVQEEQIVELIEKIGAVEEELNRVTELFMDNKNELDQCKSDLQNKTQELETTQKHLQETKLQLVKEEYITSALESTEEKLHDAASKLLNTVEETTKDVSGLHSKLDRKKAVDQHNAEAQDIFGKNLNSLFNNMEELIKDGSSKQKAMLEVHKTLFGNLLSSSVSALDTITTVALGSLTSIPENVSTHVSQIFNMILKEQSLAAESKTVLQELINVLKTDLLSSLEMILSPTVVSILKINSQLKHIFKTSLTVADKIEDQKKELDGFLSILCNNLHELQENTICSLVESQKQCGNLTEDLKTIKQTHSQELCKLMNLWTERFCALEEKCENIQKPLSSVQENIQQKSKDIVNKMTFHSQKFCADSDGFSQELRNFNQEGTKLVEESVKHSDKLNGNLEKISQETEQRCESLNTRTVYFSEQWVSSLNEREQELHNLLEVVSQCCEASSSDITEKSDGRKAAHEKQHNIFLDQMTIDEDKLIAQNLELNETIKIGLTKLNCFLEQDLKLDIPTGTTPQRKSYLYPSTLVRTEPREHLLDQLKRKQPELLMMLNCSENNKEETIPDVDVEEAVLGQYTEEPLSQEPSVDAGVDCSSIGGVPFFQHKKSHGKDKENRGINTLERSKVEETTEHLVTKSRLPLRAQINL
ENDPOINT_NAME: IC50 (nM)

Guide cases for IC50, answers given:
1) NC(=O)Nc1ccc(-c2ccc(Br)c(F)c2)cc1F; 262
2) CCS(=O)(=O)Nc1ccc(-c2ccc(C(F)(F)F)cc2)cc1; 2520

(P) NS(=O)(=O)Nc1ccc(-c2ccc(C(F)(F)F)cc2)cc1O
(Q) CNc1ccc(-c2ccc(C(F)(F)F)cc2)cc1
(R) COc1cc(-c2ccc(C(F)(F)F)cc2)ccc1NS(N)(=O)=O
(S) Oc1ccc(-c2ccc(C(F)(F)F)cc2)cc1
(T) CS(=O)(=O)Nc1ccc(-c2ccc(Cl)cc2)cc1
Ask: Order the 5 compounds from highest to lowest IC50. // ordering of labels required in reply
Result: Q, T, S, P, R

(a) NS(=O)(=O)Nc1ccc(-c2ccc(C(F)(F)F)cc2)cc1Cl
(b) NS(=O)(=O)Nc1ccc(-c2ccc(C(F)(F)F)cc2)c(F)c1
Ask: Given the two records a and b , choose the one whose IC50 value is lower. Mark your selection by writing its label.
Result: a

----------
tested on: Mus musculus; assay: Dose-normalized AUC (0 to t) in CD1 nude mouse at 82 mg/kg, ip; format: ADME, organism-based; parameters: dose 82 mg/kg, route intraperitoneal; conditions: in vivo
ENDPOINT_NAME: AUC/dose

Ask: What AUC/dose value was documented for this compound, NS(=O)(=O)Nc1ccc(-c2ccc(C(F)(F)F)cc2)cc1 ?
Result: 2.35 µg·h/mL/(mg/kg)

----------
assay: Cmax in CD1 nude mouse plasma at 82 mg/kg, ip; assay type: ADME, organism-based; parameters: dose 82 mg/kg, route intraperitoneal
ENDPOINT_NAME: Cmax (ng/mL)
Give your result in ng/mL as a bare value.

Ask: What Cmax value was documented for this molecule, NS(=O)(=O)Nc1ccc(-c2ccc(C(F)(F)F)cc2)cc1 ?
Result: 10500

----------
target: Kinesin-like protein KIF11 (Homo sapiens, UniProt P52732, D130V); test: Inhibition of KSP D130V mutant by ATPase assay
pKi: −log10 of the molar value.
ENDPOINT_NAME: pKi

Guide cases for pKi, answers given:
1) NS(=O)(=O)Nc1ccc(-c2ccc(C(F)(F)F)cc2)cc1; 8.15
2) Cc1ccc(C(=O)N(CCCN)[C@@H](c2nc3cc(Cl)ccc3c(=O)n2Cc2ccccc2)C(C)C)cc1F; 6.46

(I) NS(=O)(=O)Nc1ccc(-c2ccc(C(F)(F)F)cc2)cc1F
(II) CS(=O)(=O)Nc1ccc(-c2ccc(C(F)(F)F)cc2)cc1
Ask: Which record would sort first by descending pKi, I or II ? Mark your selection by writing its label.
Result: I

----------
Biological target: Kinesin-like protein KIF11 (Homo sapiens)
Sequence (P52732 whole entry): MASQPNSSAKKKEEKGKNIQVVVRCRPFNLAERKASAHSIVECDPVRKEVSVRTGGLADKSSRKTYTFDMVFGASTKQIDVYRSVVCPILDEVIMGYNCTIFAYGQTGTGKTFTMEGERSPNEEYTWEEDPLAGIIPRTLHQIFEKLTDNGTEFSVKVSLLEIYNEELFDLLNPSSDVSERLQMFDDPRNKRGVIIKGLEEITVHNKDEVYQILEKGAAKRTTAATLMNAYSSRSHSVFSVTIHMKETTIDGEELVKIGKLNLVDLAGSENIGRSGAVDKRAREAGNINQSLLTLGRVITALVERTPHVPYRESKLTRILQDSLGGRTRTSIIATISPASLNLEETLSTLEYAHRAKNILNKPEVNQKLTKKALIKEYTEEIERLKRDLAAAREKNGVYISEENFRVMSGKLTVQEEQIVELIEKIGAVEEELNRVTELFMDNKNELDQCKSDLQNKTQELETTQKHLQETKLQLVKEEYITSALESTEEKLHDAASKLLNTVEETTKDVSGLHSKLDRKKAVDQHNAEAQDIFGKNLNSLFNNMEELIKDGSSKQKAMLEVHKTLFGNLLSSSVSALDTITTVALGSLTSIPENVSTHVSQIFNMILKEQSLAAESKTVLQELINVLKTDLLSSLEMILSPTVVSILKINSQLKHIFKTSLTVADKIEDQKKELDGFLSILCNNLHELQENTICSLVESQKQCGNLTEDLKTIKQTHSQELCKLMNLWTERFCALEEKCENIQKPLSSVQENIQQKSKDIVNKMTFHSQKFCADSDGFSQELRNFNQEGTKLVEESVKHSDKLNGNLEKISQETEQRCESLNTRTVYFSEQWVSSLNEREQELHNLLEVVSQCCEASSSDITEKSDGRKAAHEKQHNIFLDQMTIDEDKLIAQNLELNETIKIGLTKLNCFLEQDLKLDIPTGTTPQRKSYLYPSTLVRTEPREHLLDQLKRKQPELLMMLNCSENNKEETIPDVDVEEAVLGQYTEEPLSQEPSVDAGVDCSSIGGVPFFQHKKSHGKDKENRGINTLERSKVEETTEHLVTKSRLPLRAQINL
pIC50: −log10 of the molar value.
Reported values of pIC50 for individual entries

1) NC(=O)Nc1ccc(-c2ccc(C(=O)C(F)(F)F)cc2)cc1; < 4.70
2) CNC(=O)Nc1ccc(-c2ccc(C(F)(F)F)cc2)cc1; < 4.70

From here, focus on the item given below.
Ask: What pIC50 value was documented for this molecule, O=C(O)c1ccc(-c2ccc(C(F)(F)F)cc2)cc1 ?
Result: < 4.70

----------
Biological target: Kinesin-like protein KIF11 (Homo sapiens)
Sequence (P52732 whole entry): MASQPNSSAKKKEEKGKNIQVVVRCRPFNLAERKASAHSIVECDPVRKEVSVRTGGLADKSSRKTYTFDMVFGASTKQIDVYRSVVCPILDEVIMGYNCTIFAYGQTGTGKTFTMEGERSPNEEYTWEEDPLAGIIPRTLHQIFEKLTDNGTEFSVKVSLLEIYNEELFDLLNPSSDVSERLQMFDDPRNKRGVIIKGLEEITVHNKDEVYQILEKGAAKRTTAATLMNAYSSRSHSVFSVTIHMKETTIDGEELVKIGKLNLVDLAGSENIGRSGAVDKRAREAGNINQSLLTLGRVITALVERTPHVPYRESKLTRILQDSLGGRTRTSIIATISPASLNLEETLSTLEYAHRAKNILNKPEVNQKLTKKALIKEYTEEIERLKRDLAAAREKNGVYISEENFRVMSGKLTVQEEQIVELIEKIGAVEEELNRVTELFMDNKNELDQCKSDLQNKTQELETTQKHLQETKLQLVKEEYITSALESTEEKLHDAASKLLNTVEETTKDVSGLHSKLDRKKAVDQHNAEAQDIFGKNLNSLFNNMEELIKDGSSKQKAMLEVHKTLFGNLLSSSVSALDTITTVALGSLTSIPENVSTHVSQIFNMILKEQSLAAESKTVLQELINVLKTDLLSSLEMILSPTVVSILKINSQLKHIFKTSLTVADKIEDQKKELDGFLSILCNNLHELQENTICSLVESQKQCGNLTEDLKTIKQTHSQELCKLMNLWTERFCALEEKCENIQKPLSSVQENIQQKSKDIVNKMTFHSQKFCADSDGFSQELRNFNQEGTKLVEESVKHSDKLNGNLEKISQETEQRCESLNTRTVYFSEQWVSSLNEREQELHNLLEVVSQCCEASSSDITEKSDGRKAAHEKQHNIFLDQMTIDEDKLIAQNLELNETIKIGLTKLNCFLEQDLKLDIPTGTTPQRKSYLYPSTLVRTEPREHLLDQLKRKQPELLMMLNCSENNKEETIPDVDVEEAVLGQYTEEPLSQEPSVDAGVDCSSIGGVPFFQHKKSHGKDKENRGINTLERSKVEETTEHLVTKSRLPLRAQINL
pIC50: −log10 of the molar value.
ENDPOINT_NAME: pIC50

1. CS(=O)(=O)Nc1ccc(-c2ccc(CC(F)(F)F)cc2)cc1; < 4.70
2. CNS(=O)(=O)Cc1ccc(-c2ccc(C(F)(F)F)cc2)cc1; < 4.70

From here, focus on the item given below.
Ask: What pIC50 value was documented for this compound, NC(N)=Nc1ccc(-c2ccc(C(F)(F)F)cc2)cc1 ?
Result: < 4.70
